Field: log10 Ki. Provide a value for each of the molecules that follow.
target: human VMAT2 (Homo sapiens (Human)); experiment: VMAT2 radioligand binding, 3H-dihydrotetrabenazine competition on human platelet homogenate; conditions: 10 nM 3H-dihydrotetrabenazine, human platelet homogenate, 25° C., 90 minutes; read-out: VMAT2 Ki
Sequence (Q05940 whole entry): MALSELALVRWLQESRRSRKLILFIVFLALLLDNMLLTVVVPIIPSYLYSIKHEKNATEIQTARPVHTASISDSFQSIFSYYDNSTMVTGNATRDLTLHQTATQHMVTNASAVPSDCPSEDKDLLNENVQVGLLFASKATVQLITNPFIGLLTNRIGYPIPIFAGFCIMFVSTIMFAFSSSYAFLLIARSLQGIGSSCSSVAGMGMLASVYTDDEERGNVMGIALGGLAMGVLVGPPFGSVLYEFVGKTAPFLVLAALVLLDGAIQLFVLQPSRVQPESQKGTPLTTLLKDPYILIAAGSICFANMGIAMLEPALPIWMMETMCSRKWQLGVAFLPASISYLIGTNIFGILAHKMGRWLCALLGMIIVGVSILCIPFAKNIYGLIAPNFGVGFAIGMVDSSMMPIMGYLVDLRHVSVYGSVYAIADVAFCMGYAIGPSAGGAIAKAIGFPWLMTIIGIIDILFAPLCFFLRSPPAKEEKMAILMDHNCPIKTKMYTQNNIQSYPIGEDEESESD
All values: log10 Ki [nM].

API: value(readout=log10 Ki, system=human VMAT2 (Homo sapiens (Human))) for record C=C(C)COc1cc2c(cc1OC)[C@H]1C[C@@H](O)[C@H](CC(C)(C)C)CN1CC2 [Compound 4-56]
-0.28

API: value(readout=log10 Ki, system=human VMAT2 (Homo sapiens (Human))) for record COc1cc2c(cc1OCC(C)(F)F)CCN1C[C@@H](CC(C)(C)C)[C@@H](O)C[C@H]21 [Compound 4-11]
1.15

API: value(readout=log10 Ki, system=human VMAT2 (Homo sapiens (Human))) for record COc1cc2c(cc1OCC(C)(C)O)CCN1C[C@@H](CC(C)(C)C)[C@H](O)C[C@H]21 [Compound 4-47]
1.18

API: value(readout=log10 Ki, system=human VMAT2 (Homo sapiens (Human))) for record COc1cc2c(cc1O[C@@H]1CCOC1)CCN1C[C@@H](CC(C)(C)C)[C@H](O)C[C@H]21 [Compound 4-53]
1.08

API: value(readout=log10 Ki, system=human VMAT2 (Homo sapiens (Human))) for record CC[C@H](O)COc1cc2c(cc1OC)[C@H]1C[C@@H](O)[C@H](CC(C)(C)C)CN1CC2 [Compound 4-68]
1.46

API: value(readout=log10 Ki, system=human VMAT2 (Homo sapiens (Human))) for record COc1cc2c(cc1OCCOC(C)(C)C#N)CCN1C[C@@H](CC(C)(C)C)[C@H](O)C[C@H]21 [Compound 4-44]
0.38

----------
Field: CLint scaled at 0.5 μM. Provide a value for each of the compounds that follow.
test: Stability of compounds in human liver microsomes; format: in vitro ADME; conditions: both sexes, liver microsomes, pH 7.4; calculated from HLM half-life, human; read-out: HLM Scaled Intrinsic Clearance
The figure you give is taken to be in mL/min/kg; do not add the unit.

Consider the compound `CC[C@H](O)COc1cc2c(cc1OC)[C@H]1C[C@@H](O)[C@H](CC(C)(C)C)CN1CC2` and give its measured CLint scaled at 0.5 μM.
6.37

Consider the compound `COc1cc2c(cc1OCC1COC1)CCN1C[C@@H](CC(C)(C)C)[C@H](O)C[C@H]21` and give its measured CLint scaled at 0.5 μM.
9.6

Consider the compound `COc1cc2c(cc1OCC1CCC1)CCN1C[C@@H](CC(C)(C)C)[C@H](O)C[C@H]21` and give its measured CLint scaled at 0.5 μM.
134

----------
assay: Stability of compounds in human liver microsomes; format: in vitro ADME; settings: both sexes, liver microsomes, pH 7.4; calculated from HLM half-life, human; read-out: HLM Scaled Intrinsic Clearance
Field: CLint scaled at 0.5 μM. Provide a value for each of the compounds that follow.
The figure you give is taken to be in mL/min/kg; do not add the unit.

Consider the compound `COc1cc2c(cc1OCc1ccc(C#N)o1)CCN1C[C@@H](CC(C)(C)C)[C@H](O)C[C@H]21` and give its measured CLint scaled at 0.5 μM.
24.8

Consider the compound COc1cc2c(cc1OCC1CC1(F)F)CCN1C[C@@H](CC(C)(C)C)[C@H](O)C[C@H]21 (stereo partly drawn) and give its measured CLint scaled at 0.5 μM.
4.46

Consider the compound `COc1cc2c(cc1OCCc1ccc(F)cc1)CCN1C[C@@H](CC(C)(C)C)[C@H](O)C[C@H]21` and give its measured CLint scaled at 0.5 μM.
112

Consider the compound `COCCOc1cc2c(cc1OC)[C@H]1C[C@@H](O)[C@H](CC(C)(C)C)CN1CC2` and give its measured CLint scaled at 0.5 μM.
14.2

Consider the compound `COc1cc2c(cc1O[C@H]1CCOC1)CCN1C[C@@H](CC(C)(C)C)[C@H](O)C[C@H]21` and give its measured CLint scaled at 0.5 μM.
7.59

Consider the compound `COc1cc2c(cc1OCC(F)(F)Cl)CCN1C[C@@H](CC(C)(C)C)[C@H](O)C[C@H]21` and give its measured CLint scaled at 0.5 μM.
5.5

Consider the compound `COc1cc2c(cc1OCC#N)CCN1C[C@@H](CC(C)(C)C)[C@H](O)C[C@H]21` and give its measured CLint scaled at 0.5 μM.
10.7

Consider the compound `COc1cc2c(cc1OCC1(F)CC1)CCN1C[C@@H](CC(C)(C)C)[C@@H](O)C[C@H]21` and give its measured CLint scaled at 0.5 μM.
6.6

Consider the compound `COc1cc2c(cc1OC)[C@H]1C[C@H](O)[C@H](CC(C)(C)C)CN1CC2` and give its measured CLint scaled at 0.5 μM.
32.6

----------
Field: CLint scaled at 0.5 μM. Provide a value for each of the molecules that follow.
experiment: Stability of compounds in human liver microsomes; assay type: in vitro ADME; conditions: both sexes, liver microsomes, pH 7.4; calculated from HLM half-life, human; read-out: HLM Scaled Intrinsic Clearance
The figure you give is taken to be in mL/min/kg; do not add the unit.

Consider the molecule COc1cc2c(cc1OCC1(O)CCC1)CCN1C[C@@H](CC(C)(C)C)[C@H](O)C[C@H]21 [Compound 4-25] and give its measured CLint scaled at 0.5 μM.
11.4

Consider the molecule CC[C@@H]1C[C@H]1COc1cc2c(cc1OC)[C@H]1C[C@@H](O)[C@H](CC(C)(C)C)CN1CC2 [Compound 4-90] and give its measured CLint scaled at 0.5 μM.
156

Consider the molecule COc1cc2c(cc1OCCOC(C#N)C1CC1)CCN1C[C@@H](CC(C)(C)C)[C@H](O)C[C@H]21 (stereo partly shown) [Compound 4-43] and give its measured CLint scaled at 0.5 μM.
68.8

Consider the molecule COc1cc2c(cc1OC[C@@H](C)OC)CCN1C[C@@H](CC(C)(C)C)[C@H](O)C[C@H]21 [Compound 4-91] and give its measured CLint scaled at 0.5 μM.
19.7

Consider the molecule COc1cc2c(cc1OCCOC1(C#N)CCC1)CCN1C[C@@H](CC(C)(C)C)[C@H](O)C[C@H]21 [Compound 4-23] and give its measured CLint scaled at 0.5 μM.
58.5

Consider the molecule C=C(C)COc1cc2c(cc1OC)[C@H]1C[C@@H](O)[C@H](CC(C)(C)C)CN1CC2 [Compound 4-56] and give its measured CLint scaled at 0.5 μM.
121

----------
molecular target: human VMAT2 (Homo sapiens (Human)); assay: VMAT2 radioligand binding, 3H-dihydrotetrabenazine competition on human platelet homogenate
Field: Ki. Provide a value for each of the compounds that follow.
The figure you give is taken to be in nM; do not add the unit.

API: value(readout=Ki, system=human VMAT2 (Homo sapiens (Human))) for record [2H]C([2H])([2H])Oc1cc2c(cc1OC)[C@H]1C[C@@H](O)[C@H](CC(C)(C)C)CN1CC2 [Compound 4-52]
2.5

API: value(readout=Ki, system=human VMAT2 (Homo sapiens (Human))) for record CC[C@@H](O)COc1cc2c(cc1OC)[C@H]1C[C@@H](O)[C@H](CC(C)(C)C)CN1CC2 [Compound 4-58]
1.1

API: value(readout=Ki, system=human VMAT2 (Homo sapiens (Human))) for record [2H]C([2H])([2H])C([2H])([2H])Oc1cc2c(cc1OC)[C@H]1C[C@@H](O)[C@H](CC(C)(C)C)CN1CC2 [Compound 4-40]
1.4

----------
assay: Stability of compounds in human liver microsomes; assay type: in vitro ADME; conditions: predicted from HLM data, human
Classification field: YES = Predicted Max. Bioavailability (% F) at or over 40 % F; NO = Predicted Max. Bioavailability (% F) under 40 % F.

Does the reported Predicted Max. Bioavailability (% F) for `COc1cc2c(cc1OCc1ncc(C)o1)CCN1C[C@@H](CC(C)(C)C)[C@H](O)C[C@H]21` fall at or above the 40 % F mark?
YES

Does the reported Predicted Max. Bioavailability (% F) for `COc1cc2c(cc1OCc1ccccc1)CCN1C[C@@H](CC(C)(C)C)[C@H](O)C[C@H]21` fall at or above the 40 % F mark?
NO

Does the reported Predicted Max. Bioavailability (% F) for `COc1cc2c(cc1OC)[C@H]1C[C@@H](O)[C@H](CC(C)(C)C)CN1CC2` fall at or above the 40 % F mark?
YES

Does the reported Predicted Max. Bioavailability (% F) for `COc1cc2c(cc1OCC(F)F)CCN1C[C@@H](CC(C)(C)C)[C@H](O)C[C@H]21` fall at or above the 40 % F mark?
YES

Does the reported Predicted Max. Bioavailability (% F) for `C=C(C)COc1cc2c(cc1OC)[C@H]1C[C@@H](O)[C@H](CC(C)(C)C)CN1CC2` fall at or above the 40 % F mark?
NO

Does the reported Predicted Max. Bioavailability (% F) for `CC[C@@H]1C[C@H]1COc1cc2c(cc1OC)[C@H]1C[C@@H](O)[C@H](CC(C)(C)C)CN1CC2` fall at or above the 40 % F mark?
NO

Does the reported Predicted Max. Bioavailability (% F) for `COc1cc2c(cc1OCC#N)CCN1C[C@@H](CC(C)(C)C)[C@H](O)C[C@H]21` fall at or above the 40 % F mark?
YES
